- subject.of.test: T1, human A33 antigen, full length, on cells (human, UniProt Q99795 22-319)
- T1 construct: CHO cells transfected with full length A33 cDNA (A33-CHO), or endogenous antigen of LS174T (colon) and AsPC-1 (pancreatic) tumour cells; The cell line is named under assay; also called A33-CHO; A33 antigen on LS174T cells
- T1 sequence: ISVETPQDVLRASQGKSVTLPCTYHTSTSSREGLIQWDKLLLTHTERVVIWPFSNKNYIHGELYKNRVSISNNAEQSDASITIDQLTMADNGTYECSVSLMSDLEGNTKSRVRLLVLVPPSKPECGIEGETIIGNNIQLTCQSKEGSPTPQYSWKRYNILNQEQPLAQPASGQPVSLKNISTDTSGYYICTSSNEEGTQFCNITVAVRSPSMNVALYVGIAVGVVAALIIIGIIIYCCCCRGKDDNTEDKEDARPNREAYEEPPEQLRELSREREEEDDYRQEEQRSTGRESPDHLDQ
- test: IHC on LS174T FFPE sections, 20ug/mL
quantity.name: H-Score of IHC
Report field: quantity (unit follows the number).

* humanized 31.1 antibody #8 (abb-HC + ven-LC) (antibody, human IgG1, kappa, V domains shown, Full heavy and light chains; transient Expi293 expression, tested as culture supernatant; also called Sample ID 8; abb31.1-HC + ven31.1-LC) VH: QIQLVQSGAEVKKPGASVKVSCKASGYTFTNYGMNWVRQAPGKGLEWMGWINTYTGEPTYAQKFQGRVTFTLDTSISTAYMELSRLRSDDTAVYFCARAYYGKYFDYWGQGTTVTVSS VL: SIVMTQSPSSLSVSVGDRVTITCKASQSVSNDVAWYQQKPGQSPKLLIYYASNRYTGVPDRFSGSGYGTDFTFTISSVQPEDLAVYFCQQDYSSPLTFGAGTKLELKR | 125 H-Score

Entry humanized 31.1 antibody #1 (cdr-HC + cdr-LC) (antibody, human IgG1, kappa, V domains shown, Full heavy (448 aa) and light (214 aa) chains; transient Expi293 expression, tested as culture supernatant; also called Sample ID 1; cdr31.1-HC + cdr31.1-LC) VH: QIQLVQSGAEVKKPGASVKVSCKASGYTFTNYGMNWVKQAPGKGLKWMGWINTYTGEPTYADDFKGRFAFTLDTSISTAYMELSRLRSDDTAVYFCARAYYGKYFDYWGQGTTVTVSS VL: SIVMTQSPSSLSASVGDRVTITCKASQSVSNDVAWYQQKPGQSPKLLIYYASNRYTGVPDRFSGSGYGTDFTLTISSLQPEDFAVYFCQQDYSSPLTFGAGTKLEIKR has what H-Score of IHC?
0 H-Score

Return reported H-Score of IHC; argument: humanized 31.1 antibody #15 (ven-HC + sdr-LC) (antibody, human IgG1, kappa, V domains shown, Full heavy and light chains; transient Expi293 expression, tested as culture supernatant; also called Sample ID 15; ven31.1-HC + sdr31.1-LC) VH: QIQLVQSGPEVKKPGASVKISCKASGYTFTNYGMNWVKQAPGQGLKWMGWINTYTGEPTYADDFKGRFAFTLDTSISTAYLEISRLRSDDTAVYFCARAYYGKYFDYWGQGTTLTVSS VL: SIQMTQSPSSLSASVGDRVTITCRASQSISNDLAWYQQKPGQSPKLLIYYASNRYTGVPDRFSGSGYGTDFTLTISSLQPEDFAVYFCQQDYSSPLTFGAGTKLEIKR
90 H-Score
